Documented MIC Streptococcus pneumoniae (GC 1894) across a set of molecules
- Tested on: Streptococcus sp.
- measurement_protocol: in vitro antibacterial evaluation, MIC by broth dilution
- Format: cell-based
- conditions_used: broth dilution, 18 hours at 35° C.
Write down the numeric answer in µg/mL and omit the unit.

CC(c1ccccc1)C1NC(=O)CNC(=O)C(CO)NC(=O)C(C(O)C2CN(Cc3ccccc3)C(=NCc3ccccc3)N2C2OC(CO)C(O)C(O)C2O)NC(=O)C(C(O)C2CN(Cc3ccccc3)C(=NCc3ccccc3)N2Cc2ccccc2)NC(=O)C(Cc2ccc(OC3OC(CO)C(OC4OC5COC6(OC5C(O)C4O)C4CC5CC(C4)CC6C5)C(O)C3O)cc2)NC1=O (stereo not drawn)    8

Alright, here's another molecule for you.
Which MIC Streptococcus pneumoniae (GC 1894) reading was recorded for the molecule CC(c1ccccc1)C1NC(=O)CNC(=O)C(CO)NC(=O)C(C(O)C2CN(c3ncccn3)C(=N)N2C2OC(CO)C(O)C(O)C2O)NC(=O)C(C(O)C2CNC(=Nc3ncccn3)N2)NC(=O)C(Cc2ccc(OC3OC(CO)C(OC4OC(CO)C(O)C(O)C4O)C(O)C3O)cc2)NC1=O (stereo not drawn) ?
128

====

- System: Enterococcus sp.
- measurement_protocol: in vitro antibacterial evaluation, MIC by broth dilution
- Format: cell-based
- conditions_used: Enterococcus faecium (GC 4556); broth dilution, 18 hours at 35° C.
recorded_metric: MIC Enterococcus faecium (GC 4556)

CC(C)=CCCC(C)CC1OCC2OC(OC3C(CO)OC(Oc4ccc(CC5NC(=O)C(C(C)c6ccccc6)NC(=O)CNC(=O)C(CO)NC(=O)C(C(O)C6CNC(=N)N6C6OC(CO)C(O)C(O)C6O)NC(=O)C(C(O)C6CNC(=N)N6)NC5=O)cc4)C(O)C3O)C(O)C(O)C2O1 (stereo not shown)    8 µg/mL
CC(c1ccccc1)C1NC(=O)CNC(=O)C(CO)NC(=O)C(C(O)C2CNC(=N)N2C2OC(CO)C(O)C(O)C2O)NC(=O)C(C(O)C2CNC(=N)N2)NC(=O)C(Cc2ccc(OC3OC(CO)C(OC4OC5COC(c6cccc(Cl)c6)OC5C(O)C4O)C(O)C3O)cc2)NC1=O (stereo not shown)    8 µg/mL
CC(c1ccccc1)C1NC(=O)CNC(=O)C(CO)NC(=O)C(C(O)C2CN(Cc3ccccc3)C(=NCc3ccccc3)N2C2OC(CO)C(O)C(O)C2O)NC(=O)C(C(O)C2CN(Cc3ccccc3)C(=NCc3ccccc3)N2Cc2ccccc2)NC(=O)C(Cc2ccc(OC3OC(CO)C(OC4OC(CO)C(O)C(O)C4O)C(O)C3O)cc2)NC1=O (stereo not shown)    >128 µg/mL

Proceed to the following item.
Could you tell me which MIC Enterococcus faecium (GC 4556) is on file for COc1cccc(C2OCC3OC(OC4C(CO)OC(Oc5ccc(CC6NC(=O)C(C(C)c7ccccc7)NC(=O)CNC(=O)C(CO)NC(=O)C(C(O)C7CNC(=N)N7C7OC(CO)C(O)C(O)C7O)NC(=O)C(C(O)C7CNC(=N)N7)NC6=O)cc5)C(O)C4O)C(O)C(O)C3O2)c1 (stereo not shown) ?
4 to 8 µg/mL

====

- Tested on: Streptococcus sp.
- measurement_protocol: in vitro antibacterial evaluation, MIC by broth dilution
- Format: cell-based
- conditions_used: broth dilution, inoculum 5×10^5 CFU/mL, 18 hours at 35° C.; strain ATCC 6301
Mark True only for MIC Streptococcus pneumoniae (ATCC 6301) values smaller than 1 µg/mL; exact matches and larger values are False.

CC(C)=CCN1CC(C(O)C2NC(=O)C(C(O)C3CNC(=N)N3)NC(=O)C(Cc3ccc(OC4OC(CO)C(OC5OC6COC7(OC6C(O)C5O)C5CC6CC(C5)CC7C6)C(O)C4O)cc3)NC(=O)C(C(C)c3ccccc3)NC(=O)CNC(=O)C(CO)NC2=O)N(C2OC(CO)C(O)C(O)C2O)C1=N (centres unmarked)    True
N=C1NCC(C(O)C2NC(=O)C(Cc3ccc(OC4OC(CO)C(OC5OC6COC(CCc7ccccc7)OC6C(O)C5O)C(O)C4O)cc3)NC(=O)C(CC3CCCCC3)NC(=O)CNC(=O)C(CO)NC(=O)C(C(O)C3CNC(=N)N3C3OC(CO)C(O)C(O)C3O)NC2=O)N1 (centres unmarked)    True
COc1ccc2cc(COC3C(OC4C(CO)OC(Oc5ccc(CC6NC(=O)C(C(C)c7ccccc7)NC(=O)CNC(=O)C(CO)NC(=O)C(CC7CNC(=N)N7C7OC(CO)C(O)C(O)C7O)NC(=O)C(CC7CNC(=N)N7)NC6=O)cc5)C(O)C4O)OC(CO)C(O)C3O)ccc2c1 (centres unmarked) [Example 245c]    False
COc1ccc2cc(COCC3OC(OC4C(CO)OC(Oc5ccc(CC6NC(=O)C(C(C)c7ccccc7)NC(=O)CNC(=O)C(CO)NC(=O)C(C(O)C7CNC(=N)N7C7OC(CO)C(O)C(O)C7O)NC(=O)C(C(O)C7CNC(=N)N7)NC6=O)cc5)C(O)C4O)C(O)C(O)C3O)ccc2c1 (centres unmarked)    True
COc1ccc2cc(C3OCC4OC(OC5C(CO)OC(Oc6ccc(CC7NC(=O)C(C(C)c8ccccc8)NC(=O)CNC(=O)C(CO)NC(=O)C(CC8CNC(=N)N8C8OC(CO)C(O)C(O)C8O)NC(=O)C(CC8CNC(=N)N8)NC7=O)cc6)C(O)C5O)C(O)C(O)C4O3)ccc2c1 (centres unmarked)    False

Note: attention shifts to another entry.
Strictly below 1 µg/mL in MIC Streptococcus pneumoniae (ATCC 6301)? CCCC(C)C1OCC2OC(OC3C(CO)OC(Oc4ccc(CC5NC(=O)C(C(C)c6ccc(Cl)cc6)NC(=O)CNC(=O)C(CO)NC(=O)C(C(O)C6CNC(=N)N6C6OC(CO)C(O)C(O)C6O)NC(=O)C(C(O)C6CNC(=N)N6)NC5=O)cc4)C(O)C3O)C(O)C(O)C2O1 (centres unmarked)
True
